# measured on: MBNL1/(CUG)4 complex (Homo sapiens, UniProt Q9NR56)
# Construct: The MBNL1 medium construct (1-260) was purified as previously described; made in house
# Sequence (Q9NR56 1-260, one chain of several): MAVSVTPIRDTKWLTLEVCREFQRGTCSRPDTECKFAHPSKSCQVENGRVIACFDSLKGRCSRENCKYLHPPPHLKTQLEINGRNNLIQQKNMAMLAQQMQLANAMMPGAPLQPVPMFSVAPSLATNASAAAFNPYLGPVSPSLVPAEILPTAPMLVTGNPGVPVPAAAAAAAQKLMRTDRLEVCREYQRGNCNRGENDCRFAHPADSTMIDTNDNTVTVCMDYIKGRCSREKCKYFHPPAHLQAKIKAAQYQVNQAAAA
# test: competitive EMSA (gel shift assay), disruption of the MBNL1/(CUG)4 complex
# Format: binding
# test parameters: competitive EMSA as in Example 1; Table 2; read-out: IC50 of diamidine derivatives
pIC50: −log10 of the molar value.
measurement kind: pIC50

compound	pIC50
N=C(N)c1ccc(OCCCOc2ccccc2)cc1 [drawing 8 n=3]	3.55
N=C(N)c1ccc(OCCCCCOc2ccccc2)cc1 [drawing 8 n=5]	3.70
N=C(N)c1ccc(OCCCCCCCOc2ccccc2)cc1 [drawing 8 n=7]	3.60

P: N=C(N)c1ccc(OCCCCOc2ccccc2)cc1 [drawing 8 n=4]
Q: N=C(N)c1ccc(OCCc2ccccc2)cc1 [drawing 9 n=2]
Q. Sorting ascending by pIC50, which comes first: P or Q ? // respond with label for picked entry
A. Q
(Q: 3.38, P: 3.68)

// data source = patent US20130281462A1
